All figures here come from PubChem BioAssay (NCATS).

experiment: Cytotoxicity counterscreen for NFkB agonists and antagonists (AID 624476); conditions: NFkB reporter cell line viability counterscreen; series mostly up to 46.1 µM;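 further: cells exposed to compound for 48 hours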
Records with an inconclusive call do not appear. Activity calls are given as the source filed them. The call rests on the fitted dose curve; in most records, active means well fitted curve in the direction sought with a large enough effect; inconclusive means small, poorly fitted or top-dose-only effect, or another doubt; inactive means no such curve, though single readings can be large or run the other way.
Possible outcomes: yes (1) = active, no (0) = inactive

compound | group.label
CN([C@@H](Cc1ccc(OS(=O)(=O)c2cccc3cnccc23)cc1)C(=O)N1CCN(c2ccccc2)CC1)S(=O)(=O)c1cccc2cnccc12 | no (0)
Nc1nccc(-c2ccc3noc(-c4ccc(Cl)cc4)c3c2)n1 | no (0)
c1ccc(-c2nn3c(c2-c2ccnc4cc(OCCN5CCOCC5)ccc24)CCC3)nc1 | no (0)
Cc1n[nH]c(C)c1Cc1sc2c(c1C(=O)N1C[C@H](O)CO1)c(=O)n(C)c(=O)n2CC(C)C | no (0)
COc1c(Cl)cc2c([nH]c3cnccc32)c1NC(=O)c1cccnc1C | no (0)
CCc1ccc(CCOc2ccc(CC3SC(=O)NC3=O)cc2)nc1 (stereo not drawn) | no (0)
Cc1ccc(NC(=O)c2cccc(C(C)(C)C#N)c2)cc1Nc1ccc2ncn(C)c(=O)c2c1 | no (0)
CCOC(=O)N[C@@H]1CC[C@@H]2[C@@H](C1)C[C@H]1C(=O)O[C@H](C)[C@H]1[C@@H]2C=Cc1ccc(-c2cccc(F)c2)cn1 | no (0)
CNCc1ccc(-c2[nH]c3cc(F)cc4c3c2CCNC4=O)cc1 | no (0)
O=C(C1CC1)N1CC[C@@H](Cn2c(-c3ccc(-c4ccc5occc5c4)cc3)nc3cnccc32)C1 | no (0)
Cc1cccc(-c2[nH]c(C(C)(C)C)nc2-c2ccc3nccnc3c2)n1 | no (0)
OC[C@H](Cc1ccccc1)Nc1nc(Oc2ccc3c(c2)CCC3)nc2c1ncn2Cc1ccc(-c2ccccc2)cc1 | no (0)
Cc1cc(Nc2nc(N[C@@H](C)c3ncc(F)cn3)ncc2Cl)n[nH]1 | no (0)
Clc1ccc(Nc2nnc(Cc3ccncc3)c3ccccc23)cc1 | no (0)
O=C1[C@H](Cc2ccc(O)cc2)N2C(=O)CCN(C(=O)NCc3ccccc3)[C@H]2CN1Cc1cccc2ccccc12 | no (0)
C[C@]12CCC(=O)C=C1CC[C@@H]1[C@@H]2[C@@H](O)C[C@@]2(C)[C@H]1CC[C@]2(O)C(=O)CO | no (0)
Cc1ccc2c(c1)C(=O)[C@@]1(O)CCN(c3ccccc3)C1=N2 | no (0)
CC(C)c1onc(-c2c(Cl)cccc2Cl)c1COc1ccc(/C=C/c2cccc(C(=O)O)c2)c(Cl)c1 | yes (1)

###

assay: Cell Viability - LYMP2-001 (AID 921); settings: LYMP2-001 lymphoblastoid cell viability; series mostly up to 92.2 µM;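 further: cells exposed to compound for 24 h at 37 °C; nearly all actives have a fitted effect of over 70% in size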; further: potency means the concentration at half of the fitted maximal effect
Inconclusive results are not listed. Activity calls are given as the source filed them. The call rests on the fitted dose curve; in most records, active means well fitted cell-killing curve with a large enough effect; inconclusive means small, poorly fitted or top-dose-only effect; inactive means no such curve, though single readings can be large or run the other way.
measured.metric: Potency

smiles | result
CC(=O)Oc1ccccc1C(=O)O | inactive
O=c1[nH]cnc2[nH]ncc12 | inactive
Cn1cnc([N+](=O)[O-])c1Sc1ncnc2nc[nH]c12 | 39.8 µM (active)
NS(=O)(=O)c1cc2c(cc1Cl)NC=NS2(=O)=O | inactive
NC(=O)c1cnccn1 | inactive

###

test: Quantitative High-Throughput drug screen in 47 multiple myeloma cell lines against the NCATS MIPE library collection: AMO1_DSMZ cell viability assay (AID 1918927; further: nearly all actives have a fitted effect of over 30% in size); settings: AMO1 myeloma cells viability, CellTiter-Glo ATP luminescence, 48 h; series mostly up to 45.8 µM
Records with an inconclusive call do not appear. Activity calls are given as the source filed them. Calls come from the whole dose curve; as a rule, active = well fitted cell-killing curve with a large enough effect; inconclusive = small, poorly fitted or top-dose-only effect, or effect the other way; inactive = no such curve, though single readings can be large or run the other way.
Possible outcomes: 1 (yes) for active, 0 (no) for inactive

molecule | group.label
Cc1cnc(NC(=O)C2=C(O)c3ccccc3S(=O)(=O)N2C)s1 | 0 (no)
CCOC(=O)N[C@@H]1CC[C@@H]2[C@@H](C1)C[C@H]1C(=O)O[C@H](C)[C@H]1[C@@H]2C=Cc1ccc(-c2cccc(F)c2)cn1 | 1 (yes)
Cc1cnc(Nc2ccc(OCCN3CCCC3)cc2)nc1Nc1cccc(S(=O)(=O)NC(C)(C)C)c1 | 1 (yes)
C#Cc1cccc(Nc2ncnc3cc(OCCOC)c(OCCOC)cc23)c1 | 1 (yes)
Nc1cccc(S(=O)(=O)N2CCCN(S(=O)(=O)c3ccc4c(c3)OCCO4)CC2)c1 | 1 (yes)
Fc1ccc(Cl)cc1-c1nc(Nc2ccncc2)c2nccnc2n1 | 1 (yes)
COc1cc2nccc(Oc3ccc(NC(=O)NC4CC4)c(Cl)c3)c2cc1C(N)=O | 1 (yes)
CCC(C)(C)C(=O)O[C@H]1C[C@@H](C)C=C2C=C[C@H](C)[C@H](CC[C@@H]3C[C@@H](O)CC(=O)O3)[C@H]21 | 1 (yes)
COc1ccc(CC2=NN3C([C@@H](CCc4ccccc4)[C@@H](C)O)=NC(C)C3C(=O)N2)cc1OC (stereo not given in full) | 0 (no)
OCCC#Cc1nc(-c2ccc(F)cc2)c(-c2ccncc2)n1CCCc1ccccc1 | 1 (yes)
O=C1CCc2cc(OCCCCc3nnnn3C3CCCCC3)ccc2N1 | 0 (no)
CC[C@H](Nc1ncnc2nc[nH]c12)c1nc2cccc(F)c2c(=O)n1-c1ccccc1 | 0 (no)
O=NN(CCCl)C(=O)NCCCl | 0 (no)
CCOC(=O)C1=C[C@]2(CC)CCCN3CCc4c(n1c1ccccc41)[C@@H]32 | 1 (yes)
O=c1n(CCCN2CCN(c3cccc(Cl)c3)CC2)nc2ccccn12 | 0 (no)
COc1ccc(C2=N[C@H](c3ccc(Cl)cc3)[C@H](c3ccc(Cl)cc3)N2C(=O)N2CCNC(=O)C2)c(OC(C)C)c1 | 1 (yes)
Cn1cnc2c(F)c(Nc3ccc(Br)cc3Cl)c(C(=O)NOCCO)cc21 | 1 (yes)
Cc1cccc(-c2[nH]c(C(C)(C)C)nc2-c2ccc3nccnc3c2)n1 | 1 (yes)
Nc1nc2[nH]cc(CCc3ccc(C(=O)N[C@@H](CCC(=O)O)C(=O)O)cc3)c2c(=O)[nH]1 | 1 (yes)
c1ccc([C@H]2CN3CCSC3=N2)cc1 | 0 (no)
CO[C@@H]1[C@H](N(C)C(=O)c2ccccc2)C[C@H]2O[C@]1(C)n1c3ccccc3c3c4c(c5c6ccccc6n2c5c31)C(=O)NC4 | 1 (yes)
CCOc1cc(C=C2C(=O)N(c3ccccc3)N=C2C)cc(Cl)c1OCC(=O)OC | 0 (no)
O=c1[nH]c(-c2ccc(C(F)(F)F)cc2)nc2c1CSCC2 | 0 (no)
Clc1ccc(Nc2nnc(Cc3ccncc3)c3ccccc23)cc1 | 0 (no)
Cc1ccnc(NS(=O)(=O)c2ccc(NC(=O)Nc3ccc(S(=O)(=O)Nc4nccc(C)n4)cc3)cc2)n1 | 1 (yes)
Clc1cccc(Cl)c1NC1=NCCN1 | 0 (no)
CC1(C)SCCN(S(=O)(=O)c2ccc(OCC#CCO)cc2)[C@@H]1C(=O)NO | 1 (yes)
CCCn1c(=O)c2[nH]c(C34CC5CC3C[C@@H](C5)C4)nc2n(CCC)c1=O | 1 (yes)
N=c1nc(N2CCCCC2)cc(N)n1O | 0 (no)
Cc1oncc1C(=O)Nc1ccc(C(F)(F)F)cc1 | 0 (no)
CC[C@@H](C)[C@H](NC(=O)[C@H](CC1CCCCC1)NC(=O)c1ccno1)C(=O)N1CCC2(CCc3ccccc32)CC1 | 0 (no)
Cc1ccccc1C(OCCN(C)C)c1ccccc1 (stereo not given) | 0 (no)
NS(=O)(=O)c1cc2c(cc1Cl)NC=NS2(=O)=O | 0 (no)
CCCS(=O)(=O)Nc1ccc(F)c(C(=O)c2c[nH]c3ncc(Cl)cc23)c1F | 1 (yes)
CCn1cc(C(=O)O)c(=O)c2cc(F)c(N3CCNC(C)C3)c(F)c21 (stereo not given) | 0 (no)
Cc1cccc(-c2nn(C(=S)Nc3ccccc3)cc2-c2ccnc3ccccc23)n1 | 0 (no)
Cc1cc(C=c2sc3nc4ccccc4n3c2=O)c(C)n1-c1ccccc1 | 0 (no)
CCOc1ccc(Cc2cc([C@@H]3O[C@H](CO)[C@@H](O)[C@H](O)[C@@H]3O)ccc2Cl)cc1 | 1 (yes)
CCc1ccc(CCOc2ccc(CC3SC(=O)NC3=O)cc2)nc1 (stereo not given) | 0 (no)
COc1ccc(-c2oc3cc(OC)ccc3c2C(=O)c2ccc(C#N)cc2)cc1 | 1 (yes)
